Values from ChEMBL document CHEMBL1817584

Test system: Aspergillus fumigatus
assay-procedure: Antifungal activity against Aspergillus fumigatus ATCC 96918 after 24 hrs by twofold serial dilution method
Format: functional
test-conditions: ATCC 96918, 24 h
outcome-measure: MIC (µg/mL)
Provide only the numeric value, understood in µg/mL.

Example results:
input-smiles | assay-system | readout-unit | MIC
OC(Cn1c[n+](Cc2cccc(Cl)c2)cn1)(Cn1c[n+](Cc2cccc(Cl)c2)cn1)c1ccc(F)cc1F.[Cl-].[Cl-] | Aspergillus fumigatus | µg/mL | 256
CCCCCCCC[n+]1cnn(CC(O)(Cn2c[n+](CCCCCCCC)cn2)c2ccc(F)cc2F)c1.[Br-].[Br-] | Aspergillus fumigatus | µg/mL | 128
F[P-](F)(F)(F)(F)F.F[P-](F)(F)(F)(F)F.OC(Cn1c[n+](Cc2ccc(Cl)cc2Cl)cn1)(Cn1c[n+](Cc2ccc(Cl)cc2Cl)cn1)c1ccc(F)cc1F | Aspergillus fumigatus | µg/mL | 256

We now examine a further molecule.
// sample O=C1c2cccc3c(Br)ccc(c23)C(=O)N1CCC[n+]1cnn(CC(O)(Cn2c[n+](CCCN3C(=O)c4cccc5c(Br)ccc(c45)C3=O)cn2)c2ccc(F)cc2F)c1.[Br-].[Br-] , its MIC was 16
